Each entry below lists one item and its recorded IC50 value.
System: RAW264.7
Test: Inhibition of LPS-induced NO production in mouse RAW264.7 cells pretreated for 30 mins followed by LPS challenge measured after 24 hrs by Griess assay
Assay type: functional, cell-based

[
  {
    "smiles-notation": "CC(C)=CCn1c2ccc(Br)c(=O)c-2nc2ccccc21",
    "target-or-system": "RAW264.7",
    "relation-sign": "=",
    "IC50, µM": 15.1
  },
  {
    "smiles-notation": "CC1=C(Cn2c3ccc(Br)c(=O)c-3nc3ccccc32)CCC(C)(C)C1",
    "target-or-system": "RAW264.7",
    "relation-sign": ">",
    "IC50, µM": 48.6
  }
]
